# Lookup of reported pIC50 keyed by entry
test system: HCV replicon 1AY93H; assay: microbe, parasite or virus in culture; type: cell-based, Hepatitis C virus (HCV); details: read-out: 1A Y93H IC50; replicon 1AY93H; Replicon Assay A
# pIC50: negative log10 of molar concentration; output just the value

Consider the following illustrative entries.
# compound, systemName, pIC50
records = [
    ("COC(=O)NC(C(=O)N1CCC[C@H]1c1ncc(-c2ccc3c(c2)cc2n3C(c3ccc(C(F)F)s3)Oc3cc(-c4cnc([C@@H]5CCCN5C(=O)[C@@H](NC(=O)OC)C(C)C)[nH]4)cc(F)c3-2)[nH]1)C1C[C@@H](C)O[C@@H](C)C1 (single isomer, unassigned) [Compound 265]", "HCV replicon 1AY93H", 9.80),
    ("COC(=O)N[C@H](C(=O)N1CCC[C@H]1c1ncc(-c2cc(F)c3c(c2)OC(c2ccc(C(C)(C)O)s2)n2c-3cc3cc(-c4cnc([C@@H]5CCCN5C(=O)[C@@H](NC(=O)OC)C(C)C)[nH]4)ccc32)[nH]1)C(C)C (single isomer, unassigned) [Compound 83]", "HCV replicon 1AY93H", 9.38),
    ("COC(=O)NC(C(=O)N1CCC[C@H]1c1ncc(-c2ccc3c(c2)cc2n3C(c3ccc(C4CC4)s3)Oc3cc(-c4cnc([C@@H]5CCCN5C(=O)[C@@H](NC(=O)OC)C(C)C)[nH]4)cc(F)c3-2)[nH]1)C1CCO[C@H](C)C1 (single isomer, unassigned) [Compound 141]", "HCV replicon 1AY93H", 7.89),
]

Challenge: Name the reported pIC50 value associated with the compound CCc1ccc(C2Oc3cc(-c4cnc([C@@H]5CCCN5C(=O)[C@@H](NC(=O)OC)C(C)C)[nH]4)cc(F)c3-c3cc4cc(-c5cnc([C@@H]6CCCN6C(=O)[C@@H](NC(=O)OC)C6CCOCC6)[nH]5)ccc4n32)s1 (single isomer, unassigned) [Compound 337]
Response given: 11.68

Challenge: Okay, and COC(=O)N[C@H](C(=O)N1CCC[C@H]1c1ncc(-c2cc(F)c3c(c2)OC(c2ccc(CC4CC4)s2)n2c-3cc3cc(-c4cnc([C@@H]5C[C@H]6C[C@H]6N5C(=O)[C@@H](NC(=O)OC)C(C)C)[nH]4)ccc32)[nH]1)C(C)C (single isomer, unassigned) [Compound 389] ?
Response given: 10.86

Challenge: Okay, and COC(=O)NC(C(=O)N1CCC[C@H]1c1ncc(-c2ccc3c(c2)cc2n3C(c3ccc(F)s3)Oc3cc(-c4cnc([C@@H]5CCCN5C(=O)[C@@H](NC(=O)OC)C(C)C)[nH]4)cc(F)c3-2)[nH]1)C1C[C@@H](C)O[C@@H](C)C1 (single isomer, unassigned) [Compound 349] ?
Response given: 9.57

Challenge: Okay, and COC(=O)NC(C(=O)N1CCC[C@H]1c1ncc(-c2ccc3c(c2)cc2n3C(c3cc(C)c(C)s3)Oc3cc(-c4cnc([C@@H]5CCCN5C(=O)[C@@H](NC(=O)OC)C(C)C)[nH]4)cc(F)c3-2)[nH]1)C(C)(C)F (single isomer, unassigned) [Compound 40] ?
Response given: 8.95
